- Target under test: MAO-B (Rattus norvegicus, UniProt P19643)
- Construct: using, as enzyme source, a mitochrondrial suspension of the brain of a rat; from tissue; host or cells: rat brain, mitochondrial suspension
- Sequence (P19643 whole entry): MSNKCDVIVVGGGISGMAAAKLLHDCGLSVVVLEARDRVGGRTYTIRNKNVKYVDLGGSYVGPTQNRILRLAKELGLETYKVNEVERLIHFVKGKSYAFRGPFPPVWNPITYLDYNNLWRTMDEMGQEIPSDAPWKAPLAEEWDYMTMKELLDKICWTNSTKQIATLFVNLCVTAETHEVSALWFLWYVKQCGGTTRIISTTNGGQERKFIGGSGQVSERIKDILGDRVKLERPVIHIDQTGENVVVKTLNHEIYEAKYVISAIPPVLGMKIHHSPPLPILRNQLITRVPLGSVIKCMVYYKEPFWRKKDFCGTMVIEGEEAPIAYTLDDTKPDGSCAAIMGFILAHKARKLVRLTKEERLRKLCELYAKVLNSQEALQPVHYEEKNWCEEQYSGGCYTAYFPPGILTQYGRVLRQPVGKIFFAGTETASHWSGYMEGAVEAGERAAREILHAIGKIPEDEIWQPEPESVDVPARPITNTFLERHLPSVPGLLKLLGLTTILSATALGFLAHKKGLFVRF
- Procedure summary: In vitro inhibition of monoamine oxidase B (substrate phenylethylamine, PEA; mitochondrial suspension of rat brain)
- Assay type: biochemical
- Condition summary: Table VII; PEA substrate, 20 min preincubation, reaction 10 min
pIC50: −log10 of the molar value.
Measured metric: pIC50

INSERT INTO measurements (compound_smiles, measured_metric, assay_result) VALUES
  ('N#CCCn1nnc(-c2ccc(OCc3ccccc3)cc2)n1', 'pIC50', 8.64),
  ('N#CCCn1nc(-c2ccc(OCc3ccccc3)cc2)oc1=O', 'pIC50', 8.19),
  ('COc1ccc(COc2ccc(-c3nnn(CCO)n3)cc2)cc1', 'pIC50', 5.33),
  ('N#CCCn1nnc(-c2ccc(OCc3cccc(Cl)c3)cc2)n1', 'pIC50', 8.66),
  ('COCn1nnc(-c2ccc(OCc3ccccc3)cc2)n1', 'pIC50', 5.80),
  ('N#CCCCCCCn1nnc(-c2ccc(-c3ccccc3)cc2)n1', 'pIC50', 5.27);

###

- Target under test: MAO-B (Rattus norvegicus, UniProt P19643)
- Construct: using, as enzyme source, a mitochrondrial suspension of the brain of a rat; from tissue; host or cells: rat brain, mitochondrial suspension
- Procedure summary: In vitro inhibition of monoamine oxidase B (substrate phenylethylamine, PEA; mitochondrial suspension of rat brain)
- Type: biochemical
- Condition summary: Table VIII; PEA substrate, 20 min preincubation, reaction 10 min
pIC50: −log10 of the molar value.
Measured metric: pIC50

INSERT INTO results (molecule, measured_metric, assay_result) VALUES
  ('OCCn1nnnc1-c1ccc(OCc2ccccc2I)cc1 [compound 58]', 'pIC50', 5.44),
  ('Cc1cccc(COc2ccc(-c3nnn(CCO)n3)cc2)c1 [compound 36]', 'pIC50', 6.52),
  ('Cc1cccc(COc2ccc(-c3nnnn3CCC#N)cc2)c1 [compound 61]', 'pIC50', 6.57),
  ('NCCn1nnc(-c2ccc(OCc3ccccc3)cc2)n1 [compound 68]', 'pIC50', 7.15),
  ('CN(C)CCn1nnc(-c2ccc(OCc3ccccc3)cc2)n1 [compound 64]', 'pIC50', 6.55);

###

- Target under test: MAO-A (Rattus norvegicus, UniProt P21396)
- Construct: using, as enzyme source, a mitochrondrial suspension of the brain of a rat; from tissue; host or cells: rat brain, mitochondrial suspension
- Sequence (P21396 1-526): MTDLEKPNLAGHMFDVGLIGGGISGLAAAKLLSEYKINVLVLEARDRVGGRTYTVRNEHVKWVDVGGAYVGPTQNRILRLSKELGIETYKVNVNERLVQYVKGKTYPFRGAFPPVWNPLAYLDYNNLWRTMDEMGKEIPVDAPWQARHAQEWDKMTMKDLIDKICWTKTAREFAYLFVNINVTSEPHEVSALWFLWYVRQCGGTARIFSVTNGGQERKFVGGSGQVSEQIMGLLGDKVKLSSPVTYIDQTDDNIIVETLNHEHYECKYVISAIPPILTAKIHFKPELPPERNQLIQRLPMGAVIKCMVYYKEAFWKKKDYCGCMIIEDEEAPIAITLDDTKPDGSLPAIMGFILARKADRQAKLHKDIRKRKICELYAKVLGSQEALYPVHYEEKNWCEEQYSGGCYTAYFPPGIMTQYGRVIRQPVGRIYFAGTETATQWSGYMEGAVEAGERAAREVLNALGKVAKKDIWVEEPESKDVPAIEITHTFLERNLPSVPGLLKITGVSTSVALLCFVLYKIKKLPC
- Procedure summary: In vitro inhibition of monoamine oxidase A (substrate serotonine, 5-HT; mitochondrial suspension of rat brain)
- Format: biochemical
- Condition summary: read-out: % of inhibition of MAO-A at a concentration of 10^-6 M; Table VIII; at a concentration of 10^-6 M; 5-HT substrate
Measured metric: inhibition at 1 µM

INSERT INTO assay_data (compound, target_under_test, assay_result) VALUES
  ('N#CCn1nnnc1-c1ccc(OCc2ccccc2)cc1 [compound 59]', 'MAO-A (Rattus norvegicus, UniProt P21396)', '4%'),
  ('Cc1ccccc1COc1ccc(-c2nnn(CCO)n2)cc1 [compound 39]', 'MAO-A (Rattus norvegicus, UniProt P21396)', '3%'),
  ('COc1cccc(COc2ccc(-c3nnn(CCC#N)n3)cc2)c1 [compound 44]', 'MAO-A (Rattus norvegicus, UniProt P21396)', '0%'),
  ('N#CCn1nnc(-c2ccc(OCc3ccc(F)cc3)cc2)n1 [compound 46]', 'MAO-A (Rattus norvegicus, UniProt P21396)', '6%'),
  ('N#CCn1nnnc1-c1ccc(OCc2ccc(F)cc2)cc1 [compound 52]', 'MAO-A (Rattus norvegicus, UniProt P21396)', '15%'),
  ('N#CCn1nnc(-c2ccc(OCc3ccccc3)cc2)n1 [compound 29]', 'MAO-A (Rattus norvegicus, UniProt P21396)', '3%'),
  ('N#CCCn1nnc(-c2ccc(OCc3ccc(F)cc3)cc2)n1 [compound 47]', 'MAO-A (Rattus norvegicus, UniProt P21396)', '2%'),
  ('COc1cccc(COc2ccc(-c3nnn(CCO)n3)cc2)c1 [compound 45]', 'MAO-A (Rattus norvegicus, UniProt P21396)', '7%'),
  ('Cc1cccc(COc2ccc(-c3nnn(CCO)n3)cc2)c1 [compound 36]', 'MAO-A (Rattus norvegicus, UniProt P21396)', '2%'),
  ('NCCn1nnc(-c2ccc(OCc3ccccc3)cc2)n1 [compound 68]', 'MAO-A (Rattus norvegicus, UniProt P21396)', '6%'),
  ('Cc1ccccc1COc1ccc(-c2nnn(CCC#N)n2)cc1 [compound 38]', 'MAO-A (Rattus norvegicus, UniProt P21396)', '6%'),
  ('Cc1ccccc1COc1ccc(-c2nnnn2CCC#N)cc1 [compound 60]', 'MAO-A (Rattus norvegicus, UniProt P21396)', '17%'),
  ('Cc1ccccc1COc1ccc(-c2nnn(CC#N)n2)cc1 [compound 37]', 'MAO-A (Rattus norvegicus, UniProt P21396)', '10%'),
  ('CC(=O)NCCn1nnc(-c2ccc(OCc3ccccc3)cc2)n1 [compound 66]', 'MAO-A (Rattus norvegicus, UniProt P21396)', '3.7%'),
  ('OCCn1nnnc1-c1ccc(OCc2ccc(F)cc2)cc1 [compound 53]', 'MAO-A (Rattus norvegicus, UniProt P21396)', '3%'),
  ('Cc1cccc(COc2ccc(-c3nnn(CCC#N)n3)cc2)c1 [compound 35]', 'MAO-A (Rattus norvegicus, UniProt P21396)', '5%');

Entry source: patent US5100910A
